Species: Rattus norvegicus
experimental-details: In vitro inhibitory activity was determined against dopamine synthesis in rat striatal synaptosomes
condition-parameters: Brain
experimental-readout: pIC50
Note on pIC50: it is the negative log10 of concentration, concentration in mol/L.

Please fill in: pIC50 reported for CCCN1CCCC(c2cccc(O)c2)C1 (stereo unspecified) = 4.26
